- ASSAY COMMENT: NCI Yeast Anticancer Drug Screen. Data for the cln2 rad14 strain (AID 165);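 note: 0% = growth equal to vehicle treated cultures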
- CONDITION SET: S. cerevisiae cln2 rad14 strain, at 5.0 µM (retest, dose inferred, filed as 0.5), hits give high values
This is part of a sample that, as a whole, favours compounds with a hit. Of some 79,000 tested, about 15% had one in any assay.
MEASUREMENT KIND: growth inhibition (%)
Express it in %; write the number only.

• COc1ccc(CC/C(=N/O)c2ccccc2)cc1 = -10
• CCCC(=O)C1=C(O)C(Cc2c(O)c(C)c(O)c(C(=O)CCC)c2O)=C(O)C(C)(C)C1=O = -4
• CC1=C(C(=O)OC(C)C)C(c2ccccc2[N+](=O)[O-])C(C(=O)OC(CO[N+](=O)[O-])CO[N+](=O)[O-])=C(C)N1 (stereo unspecified) = 2

Data point: "COc1ccc(/C(Cl)=C(\c2ccc(OCCN(C)C)cc2)c2ccc(OC(=O)C(C)(C)C)cc2)cc1" ; growth inhibition = 10

Data point: "CN(C)[C@@H]1C(=O)C(C(=O)NCNc2nc3n[nH]nc3c(=O)[nH]2)=C(O)[C@@]2(O)C(=O)C3=C(O)c4c(O)cccc4[C@@](C)(O)[C@H]3C[C@@H]12" ; growth inhibition = 1

Data point: "O=C(O)c1ccc(C(=O)c2ccccc2C(=O)O)cc1" ; growth inhibition = -2

Data point: "NC(=S)C(=S)N/C=C/c1nc2ccccc2[nH]c1=O" ; growth inhibition = -11

Data point: "COC(=O)c1cc(=O)n(-c2ccccc2C(F)(F)F)c(SC)n1" ; growth inhibition = 14

Data point: CCCOC(=O)C1CCCCC1C(=O)OCCC (stereo unspecified) ; growth inhibition = -4

Data point: CSC(=S)SC(SC)S(C)(=O)=O (stereo unspecified) ; growth inhibition = 1

Data point: C=C1C(=O)C23OC2C1CCC(=O)C1(C)CC[C@H](OC(C)=O)C(C)(C)[C@H]1CC3O (stereo partly specified) ; growth inhibition = 71

Data point: CCC(C)OC(=S)S (stereo unspecified) ; growth inhibition = 1

Reference for the values: PubChem BioAssay (NCI)
